Biological target: human Tissue Factor Pathway Inhibitor-1α (TFPI-1α) (human), P10646
Sequence (P10646 29-304): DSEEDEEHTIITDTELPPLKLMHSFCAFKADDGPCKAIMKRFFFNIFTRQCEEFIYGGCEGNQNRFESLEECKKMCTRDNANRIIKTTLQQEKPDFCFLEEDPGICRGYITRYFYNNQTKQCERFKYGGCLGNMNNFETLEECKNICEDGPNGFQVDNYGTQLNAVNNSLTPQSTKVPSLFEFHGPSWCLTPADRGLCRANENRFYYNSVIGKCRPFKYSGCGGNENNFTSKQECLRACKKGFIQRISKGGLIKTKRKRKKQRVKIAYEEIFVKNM
Experiment: competition
Conditions: modification not given
Below, each entry is listed alongside its reported IC50.

{"columns": ["Binder", "IC50"],
 "data": [
  ["FQSKKNVFVFGFFERLRAKL [JBT0577]", "> 5 µM"],
  ["FQSKKNVFVFGDFERLRAKL [JBT0594]", "> 5 µM"],
  ["FQSKKNVFVFGYFEFLRAKL [JBT0579]", "> 5 µM"],
  ["FQSKKNDFVFGYFERLRAKL [JBT0590]", "> 5 µM"]
]}

Please report the measured IC50 for FQSKKNVFVFGYFERLDAKL [JBT0598]
> 5 µM

Please report the measured IC50 for FQFKKNVFVFGYFERLRAKL [JBT0571]
> 5 µM

Please report the measured IC50 for FQSKFNVFVFGYFERLRAKL [JBT0573]
1.37 µM

Please report the measured IC50 for FQSKKNVFVFGYFERLRFKL [JBT0582]
> 5 µM

Please report the measured IC50 for FQSKGNVFVFGYFDRLRAKL [JBT0528]
0.107 µM
